- Tested on: UO-31 renal
- assay.info: NCI tumour cell line growth inhibition, 48 h; in the data active = GI50 below about 0.43 µM; inactive = the rest
Labels: T = active, F = inactive

INSERT INTO measurements (compound, measured_target, assigned_label) VALUES
  ('COc1ccc(C(=O)/C=C/c2cccnc2Nc2cc(OC)c(OC)c(OC)c2)cc1', 'UO-31 renal', 'F'),
  ('O=C(C[C@@H](C(=O)NCc1cccc(C(F)(F)F)c1)N1C(=O)[C@@H](N2C(=O)OC[C@@H]2c2ccccc2)[C@H]1/C=C/c1ccccc1)NC1CCN(Cc2ccccc2)CC1', 'UO-31 renal', 'F'),
  ('COC(=O)[C@]12CCC(C)(C)C[C@H]1C1=CC[C@@H]3[C@@]4(C)C/C(=C/c5cccnc5)C(=O)C(C)(C)[C@@H]4CC[C@@]3(C)[C@]1(C)CC2', 'UO-31 renal', 'F'),
  ('COc1cc([C@@H]2c3cc4c(cc3C(O[C@@H]3O[C@@H]5CO[C@@H](c6cccs6)OC5[C@H](O)[C@H]3O)C3COC(=O)[C@@H]32)OCO4)cc(OC)c1O (stereo partly specified)', 'UO-31 renal', 'T'),
  ('N#C/C(C(=S)Nc1ccccc1)=C1/NN=C2c3ccccc3C(=O)NN21', 'UO-31 renal', 'F'),
  ('Cn1cc(-c2csc(-c3cccc(F)c3)n2)c2cccnc21', 'UO-31 renal', 'F'),
  ('Cn1cc(C2=C(c3cn(CCCN=C(N)N)c4ccccc34)C(=O)NC2=O)c2ccccc21', 'UO-31 renal', 'F'),
  ('CC(C)CSc1nc(Nc2ccccc2)c(C#N)c(-c2ccc(F)cc2)n1', 'UO-31 renal', 'F'),
  ('COc1ccc2cc(C(=O)/C=C/c3cccc(OC)c3OC)ccc2c1', 'UO-31 renal', 'F'),
  ('COc1ccc(-c2cc3c(nn2)-c2ccccc2C3=O)cc1', 'UO-31 renal', 'F'),
  ('COc1cc(-c2c(C#N)c(N)n3c(nc4ccccc43)c2C#N)cc(Br)c1OC', 'UO-31 renal', 'F');
